These data points were gathered from patent US5495006A.

- targetEntity: T1, HIV-1 Tat-derived peptide RKKRRQRRRPPQGS (Human immunodeficiency virus 1)
- T1 chain: RKKRRQRRRPPQGS
- methodNotes: EMSA; Tm 60 C
- statedConditions: protein: synthetic; tags: synthetic peptide, American Peptide Co; HIV LAI isolate; label: 5'-32P; linker-bridged hairpin
recordedEndpoint: pKd
Reminder that pKd means the negative base-10 logarithm of the concentration expressed in mol/L.

Give the measured pKd of GGAGAUGAGCGCUCUCUCC (ssRNA, bulge UCU replaced by U-Lc-Lc (two C3 linkers between nt 6 and nt 9); loop closure shown only in structure drawing) [TAR conjugate structure 8] .
9.29
